Hi there, I'd appreciate the recorded IC50 for every entry that follows.
Target: Human recombinant PDE10A2 (Homo sapiens (Human), UniProt Q9Y233)
Sequence (Q9Y233 267-1055): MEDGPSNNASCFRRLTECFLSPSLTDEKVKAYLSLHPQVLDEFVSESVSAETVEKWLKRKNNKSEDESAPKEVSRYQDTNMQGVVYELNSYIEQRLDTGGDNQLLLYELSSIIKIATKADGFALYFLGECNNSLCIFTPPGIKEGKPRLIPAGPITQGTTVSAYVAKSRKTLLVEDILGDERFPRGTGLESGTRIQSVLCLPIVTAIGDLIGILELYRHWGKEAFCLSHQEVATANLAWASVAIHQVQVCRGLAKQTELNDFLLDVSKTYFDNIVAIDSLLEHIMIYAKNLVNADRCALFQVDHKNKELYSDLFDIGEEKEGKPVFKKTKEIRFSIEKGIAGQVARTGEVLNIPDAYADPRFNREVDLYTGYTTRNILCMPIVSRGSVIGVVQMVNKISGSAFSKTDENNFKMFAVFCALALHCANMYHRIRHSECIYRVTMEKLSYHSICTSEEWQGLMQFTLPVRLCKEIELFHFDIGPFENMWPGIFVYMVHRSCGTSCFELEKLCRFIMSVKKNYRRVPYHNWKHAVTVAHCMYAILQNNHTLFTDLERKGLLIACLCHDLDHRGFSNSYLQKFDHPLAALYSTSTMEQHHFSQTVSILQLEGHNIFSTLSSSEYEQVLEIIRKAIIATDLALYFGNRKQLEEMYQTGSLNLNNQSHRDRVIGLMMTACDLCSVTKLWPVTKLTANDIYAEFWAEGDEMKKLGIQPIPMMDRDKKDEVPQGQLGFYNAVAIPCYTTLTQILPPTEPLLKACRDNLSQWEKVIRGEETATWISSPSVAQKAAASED
Assay: In vitro hPDE10a: human recombinant PDE10A2 scintillation proximity assay, IC50
Conditions: human recombinant PDE10A2, SPA, 60 nM cAMP; read-out: hPDE10a2 IC50
Counter-ions that a name gives are not always drawn.
Numbers only, in nM.

Some compounds with known IC50 results, for comparison:
O=C(O)c1ccc(-c2c(C#Cc3ccc(C(F)(F)F)cn3)nc3c(N4CCOCC4)ccnn23)cc1 : 22
O=C(O)C1CCN(c2ccc(-c3c(/C=C/c4ccc5ccccc5n4)nc4c(N5CCOCC5)ccnn34)cc2)CC1 [Cpd 100, trifluoroacetic acid salt] : 3
O=C(O)c1ccc(Nc2c(/C=C/c3ccc4ccccc4n3)nc3c(N4CCOCC4)ccnn23)cc1 : 5

API: the following record is the query input.
Entry under test: `O=c1[nH]c(-c2ccc(-c3c(/C=C/c4ccc5ccccc5n4)nc4c(N5CCOCC5)ccnn34)cc2)no1` . Its IC50 was 4

====

Molecular target: Human recombinant PDE10A2 (Homo sapiens (Human), UniProt Q9Y233)
Test: In vitro hPDE10a: human recombinant PDE10A2 scintillation proximity assay, IC50
Conditions: human recombinant PDE10A2, SPA, 60 nM cAMP; read-out: hPDE10a2 IC50
Counter-ions that a name gives are not always drawn.
Assign pIC50 to each entry below.
One number for each entry, as −log10 of the molar value.

The cases that follow already have their pIC50 on record.
Oc1ncn(-c2ccc(-c3c(/C=C/c4ccc5ccccc5n4)nc4c(N5CCOCC5)ccnn34)cc2)n1 [Cpd 54, trifluoroacetic acid salt] : 8.15
CS(=O)(=O)Nc1ccc(-c2c(/C=C/c3ccc4ccccc4n3)nc3c(N4CCOCC4)ccnn23)cc1 : 7.85
CS(=O)(=O)NC(=O)C1CCN(c2c(/C=C/c3ccc4ccccc4n3)nc3c(N4CCOCC4)ccnn23)CC1 : 8.52
O=C(O)c1ccc(-c2c(/C=C/c3ccc4ccccc4n3)nc3c(N4CCOCC4)ccnn23)s1 : 9.00

For every item below, please supply its pIC50.
1. CS(=O)(=O)NC(=O)c1ccc(-c2c(C#Cc3ccc4ccccc4n3)nc3c(N4CCOCC4)ccnn23)cn1
2. CS(=O)(=O)NC(=O)Nc1ccc(-c2c(CCc3ccc4ccccc4n3)nc3c(N4CCOCC4)ccnn23)cc1
3. O=C(O)c1cccc2nc(/C=C/c3cn4nccc(N5CCOCC5)c4n3)ccc12

[reply]
9.00
8.22
9.00

====

Molecular target: Human recombinant PDE10A2 (Homo sapiens (Human))
Assay: In vitro hPDE10a: human recombinant PDE10A2 scintillation proximity assay, IC50
Conditions: human recombinant PDE10A2, SPA, 60 nM cAMP; read-out: hPDE10a2 IC50
Counter-ions that a name gives are not always drawn.
Please respond with reported pIC50 for every item in the list.
Give bare numbers, as −log10 of the molar value.

O=C(O)c1ccc(-c2c([C@H]3C[C@H](c4ccc5ccccc5n4)C3)nc3c(N4CCOCC4)cc(Cl)nn23)cc1 [compound 160, trifluoroacetic acid salt] : 9.00

Hello, I would appreciate it if you could give pIC50 for each entry below.
1. CS(=O)(=O)NC(=O)c1cccc2nc(/C=C/c3nc4c(N5CCOCC5)ccnn4c3-c3ccccn3)ccc12
2. Cn1nc(-c2ccc(-c3c(/C=C/c4ccc5ccccc5n4)nc4c(N5CCOCC5)ccnn34)cc2)nc1O
3. C(=C\c1nc2c(N3CCOCC3)ccnn2c1-c1ccc(N2CCNCC2)nc1)/c1ccc2ccccc2n1 [Cpd 177, trifluoroacetic acid salt]
4. CN1CC=C(c2ccc(-c3c(COc4ccc5ccccc5n4)nc4c(N5CCOCC5)ccnn34)cn2)CC1
5. CC(C)[C@H](Nc1ccc(-c2c(/C=C/c3ccc4ccccc4n3)nc3c(N4CCOCC4)ccnn23)cc1)C(=O)O [Cpd 99, trifluoroacetic acid salt]
6. c1ccc2nc(CCc3nc4c(N5CCOCC5)ccnn4c3-c3ccc(N4CCNCC4)nc3)ccc2c1 [Cpd 13, trifluoroacetic acid salt]
7. O=C(O)CCNC(=O)c1ccc(-c2c(CCc3ccc4ccccc4n3)nc3c(N4CCOCC4)ccnn23)cc1
8. NC(=O)[C@@H](N)CCCCNC(=O)c1ccc(-c2c(C#Cc3ccc4ccccc4n3)nc3c(N4CCOCC4)ccnn23)cc1

[reply]
1: 8.40; 2: 7.89; 3: 7.68; 4: 7.37; 5: 8.00; 6: 7.70; 7: 8.52; 8: 8.30

Just for reference, patent US9193736B2 is where these values come from.
